- METHOD_DESCRIPTION: Solubility of Crystalline Form A in test solvents (excess solid equilibrated, filtrate by HPLC)
- Format: physicochemical
- DETAILS: pH 2.33, aqueous with cosolvent or surfactant or cyclodextrin, thermodynamic from solid; 0.01N HCl + SDS (0.1%); 25°C, equilibrated 8 days
READOUT_TYPE: solubility at 8 days (µg/mL)

STRUCTURE_STRING	READOUT_TYPE	QUANTITATIVE_READOUT
CCc1cc(/C(C)=N/OCc2ccc(C3CCCCC3)c(C(F)(F)F)c2)ccc1CN1CC(C(=O)O)C1	solubility at 8 days	994

* * *

- METHOD_DESCRIPTION: Solubility of Crystalline Form A in test solvents (excess solid equilibrated, filtrate by HPLC)
- Assay type: physicochemical
- DETAILS: organic solvent or mixture, thermodynamic from solid; Ethanol; 25°C, equilibrated 8 days

STRUCTURE_STRING	solubility at 8 days (mg/mL)
CCc1cc(/C(C)=N/OCc2ccc(C3CCCCC3)c(C(F)(F)F)c2)ccc1CN1CC(C(=O)O)C1	47.6

* * *

- METHOD_DESCRIPTION: Solubility of Crystalline Form A in test solvents (excess solid equilibrated, filtrate by HPLC)
- Assay type: physicochemical
- DETAILS: organic solvent or mixture, thermodynamic from solid; acetonitrile; 25°C, equilibrated 8 days
READOUT_TYPE: solubility at 8 days (µg/mL)

STRUCTURE_STRING	UNITS	QUANTITATIVE_READOUT
CCc1cc(/C(C)=N/OCc2ccc(C3CCCCC3)c(C(F)(F)F)c2)ccc1CN1CC(C(=O)O)C1	µg/mL	610

* * *

- METHOD_DESCRIPTION: Solubility of Crystalline Form A in test solvents (excess solid equilibrated, filtrate by HPLC)
- Format: physicochemical
- DETAILS: aqueous buffer, thermodynamic from solid; Phosphate buffer, pH 6.8; 25°C, equilibrated 8 days
READOUT_TYPE: solubility at 8 days (µg/mL)

COMPOUND	READOUT_TYPE	QUANTITATIVE_READOUT
CCc1cc(/C(C)=N/OCc2ccc(C3CCCCC3)c(C(F)(F)F)c2)ccc1CN1CC(C(=O)O)C1 [Compound I]	solubility at 8 days	0.47

* * *

- METHOD_DESCRIPTION: Solubility of Crystalline Form A in test solvents (excess solid equilibrated, filtrate by HPLC)
- Format: physicochemical
- DETAILS: pH 2.24, simulated gastric fluid, thermodynamic from solid; 0.01N HCL; 25°C, equilibrated 8 days

STRUCTURE_STRING	solubility at 8 days [µg/mL]
CCc1cc(/C(C)=N/OCc2ccc(C3CCCCC3)c(C(F)(F)F)c2)ccc1CN1CC(C(=O)O)C1	0.6

* * *

- METHOD_DESCRIPTION: Solubility of Crystalline Form A in test solvents (excess solid equilibrated, filtrate by HPLC)
- Type: physicochemical
- DETAILS: pH 1.49, simulated gastric fluid, thermodynamic from solid; 0.1N HCl; 25°C, equilibrated 8 days

STRUCTURE_STRING	solubility at 8 days / µg/mL
CCc1cc(/C(C)=N/OCc2ccc(C3CCCCC3)c(C(F)(F)F)c2)ccc1CN1CC(C(=O)O)C1	1.5

* * *

- METHOD_DESCRIPTION: Solubility of Crystalline Form A in test solvents (excess solid equilibrated, filtrate by HPLC)
- Type: physicochemical
- DETAILS: thermodynamic from solid; water; 37°C, equilibrated 4 days
READOUT_TYPE: solubility at 4 days (µg/mL)

STRUCTURE_STRING	READOUT_TYPE	QUANTITATIVE_READOUT
CCc1cc(/C(C)=N/OCc2ccc(C3CCCCC3)c(C(F)(F)F)c2)ccc1CN1CC(C(=O)O)C1	solubility at 4 days	106

* * *

- METHOD_DESCRIPTION: Solubility of Crystalline Form A in test solvents (excess solid equilibrated, filtrate by HPLC)
- Assay type: physicochemical
- DETAILS: simulated gastric fluid, thermodynamic from solid; 0.1N HCl; 37°C, equilibrated 4 days
- Method: The solubility and dissolution rate of the Crystalline form A of the free base of compound I prepared as described in Example 1 were tested in various solvents. For solubility measurements, excess Form A of the free base of compound I was added to the test solvents and equilibrated for 8 days at 25° C.±0.5° C. and 4 days at 37±0.5° C. […] The dissolution was measured using fiber optics dissolution system (C technologies Inc.) and a Cary UV/VIS spectrophotometer, with a stirring rate of 200 rpm. […]

STRUCTURE_STRING	solubility at 4 days, µg/mL
CCc1cc(/C(C)=N/OCc2ccc(C3CCCCC3)c(C(F)(F)F)c2)ccc1CN1CC(C(=O)O)C1	1.9

* * *

- METHOD_DESCRIPTION: Solubility of Crystalline Form A in test solvents (excess solid equilibrated, filtrate by HPLC)
- Assay type: physicochemical
- DETAILS: pH 7.02, aqueous with cosolvent or surfactant or cyclodextrin, thermodynamic from solid; Water + SDS (0.1%); 25°C, equilibrated 8 days
- Procedure: The solubility and dissolution rate of the Crystalline form A of the free base of compound I prepared as described in Example 1 were tested in various solvents. For solubility measurements, excess Form A of the free base of compound I was added to the test solvents and equilibrated for 8 days at 25° C.±0.5° C. and 4 days at 37±0.5° C. […] The dissolution was measured using fiber optics dissolution system (C technologies Inc.) and a Cary UV/VIS spectrophotometer, with a stirring rate of 200 rpm. […]
READOUT_TYPE: solubility at 8 days (µg/mL)

STRUCTURE_STRING	READOUT_TYPE	QUANTITATIVE_READOUT
CCc1cc(/C(C)=N/OCc2ccc(C3CCCCC3)c(C(F)(F)F)c2)ccc1CN1CC(C(=O)O)C1	solubility at 8 days	1190

* * *

- METHOD_DESCRIPTION: Solubility of Crystalline Form A in test solvents (excess solid equilibrated, filtrate by HPLC)
- Assay type: physicochemical
- DETAILS: pH 6.28, thermodynamic from solid; Water; 25°C, equilibrated 8 days
- Description: The solubility and dissolution rate of the Crystalline form A of the free base of compound I prepared as described in Example 1 were tested in various solvents. For solubility measurements, excess Form A of the free base of compound I was added to the test solvents and equilibrated for 8 days at 25° C.±0.5° C. and 4 days at 37±0.5° C. […] The dissolution was measured using fiber optics dissolution system (C technologies Inc.) and a Cary UV/VIS spectrophotometer, with a stirring rate of 200 rpm. […]
READOUT_TYPE: solubility at 8 days (µg/mL)

COMPOUND	UNITS	QUANTITATIVE_READOUT
CCc1cc(/C(C)=N/OCc2ccc(C3CCCCC3)c(C(F)(F)F)c2)ccc1CN1CC(C(=O)O)C1 [Compound I]	µg/mL	33
